Reported IC50 by item:
Target: hALDH1a2 (Homo sapiens, UniProt O94788)
Sequence (O94788 1-518): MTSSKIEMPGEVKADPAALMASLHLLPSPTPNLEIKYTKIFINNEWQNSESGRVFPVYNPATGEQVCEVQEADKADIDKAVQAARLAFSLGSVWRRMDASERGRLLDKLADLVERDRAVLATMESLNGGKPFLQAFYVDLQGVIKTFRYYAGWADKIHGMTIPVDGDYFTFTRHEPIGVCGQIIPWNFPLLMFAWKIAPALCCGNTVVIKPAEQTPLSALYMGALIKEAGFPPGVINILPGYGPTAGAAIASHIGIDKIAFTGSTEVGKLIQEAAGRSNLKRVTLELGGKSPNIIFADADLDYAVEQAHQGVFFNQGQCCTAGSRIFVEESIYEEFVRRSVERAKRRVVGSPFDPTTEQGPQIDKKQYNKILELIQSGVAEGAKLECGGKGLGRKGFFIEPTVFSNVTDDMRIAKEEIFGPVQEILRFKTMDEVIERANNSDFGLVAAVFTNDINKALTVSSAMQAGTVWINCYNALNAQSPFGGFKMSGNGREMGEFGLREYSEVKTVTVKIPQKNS
Assay: Aldh1a2 enzyme inhibition assay (resorufin fluorescence), human enzyme
Conditions: recombinant enzyme, 20° C., activity level classes
From the text: Recombinant enzyme and inhibitor added immediately before assay. Reaction rate measured by resorufln fluorescence.

compound: CCc1ncsc1C(=O)Nc1cc(Cl)c2c(c1)CCC(=O)N2 [Compound 36]
measuredOn: hALDH1a2 (Homo sapiens, UniProt O94788)
IC50: 250 to 1000 nM
--
compound: Cc1cc(NC(=O)c2ncsc2CC(F)(F)F)cc2c1NC(=O)C1CC21 (stereo not drawn) [Compound 40]
measuredOn: hALDH1a2 (Homo sapiens, UniProt O94788)
IC50: < 100 nM
--
compound: CCc1sncc1C(=O)Nc1cc(C)c2c(c1)C1CC1C(=O)N2 (stereo not drawn) [Compound 52]
measuredOn: hALDH1a2 (Homo sapiens, UniProt O94788)
IC50: < 100 nM
--
compound: O=C1CCc2cc(NC(=O)c3ccccc3-c3cccc(F)c3)ccc2N1 [Compound 22]
measuredOn: hALDH1a2 (Homo sapiens, UniProt O94788)
IC50: > 5000 nM
--
compound: Cc1c(Cl)c(NC(=O)c2ncsc2CC(F)(F)F)cc2c1NC(=O)CC2 [Compound 73]
measuredOn: hALDH1a2 (Homo sapiens, UniProt O94788)
IC50: 100 to 250 nM
--
compound: Cc1cc(NC(=O)c2ccncc2CC(F)(F)F)cc2c1NC(=O)CS2 [Compound 7]
measuredOn: hALDH1a2 (Homo sapiens, UniProt O94788)
IC50: 250 to 1000 nM
--
compound: Cc1cc(NC(=O)c2ccncc2-c2ccccc2F)cc2c1NC(=O)CC2 [Compound 2]
measuredOn: hALDH1a2 (Homo sapiens, UniProt O94788)
IC50: 100 to 250 nM
--
compound: Cc1cc(NC(=O)c2ocnc2CC(F)(F)F)cc2c1NC(=O)CC2 [Compound 56]
measuredOn: hALDH1a2 (Homo sapiens, UniProt O94788)
IC50: 1000 to 5000 nM
--
compound: Cc1cc(NC(=O)c2ccncc2-c2ccc(C#N)cc2)cc2c1NC(=O)CC2 [Compound 14]
measuredOn: hALDH1a2 (Homo sapiens, UniProt O94788)
IC50: > 5000 nM

====

target: hALDH1a3 (Homo sapiens); assay: Aldh1a3 enzyme inhibition assay (resorufin fluorescence), human enzyme; settings: recombinant enzyme, 20° C., activity level classes
pIC50: −log10 of the molar value.
Reported pIC50 by item:
readoutKind: pIC50

compound: CCc1sncc1C(=O)Nc1cc(C)c2c(c1)C1CC1C(=O)N2 (centres unmarked) [Compound 52]
observed: 6.60 to 7.00

compound: O=C(Nc1cc(Cl)c2c(c1)C1CC1C(=O)N2)c1scnc1CC(F)(F)F (centres unmarked) [Compound 42]
observed: 6.60 to 7.00

compound: CCc1ncoc1C(=O)Nc1cc(C)c2c(c1)CCC(=O)N2 [Compound 57]
observed: 6.00 to 6.60

compound: CCCc1ncsc1C(=O)Nc1cc(C)c2c(c1)CCC(=O)N2 [Compound 66]
observed: 6.60 to 7.00

compound: Cc1cc(NC(=O)c2scnc2CC(F)(F)F)cc2c1NC(=O)C1CC21 (centres unmarked) [Compound 33]
observed: 6.60 to 7.00

====

biological target: mALDH1a3 (Mus musculus, UniProt Q9JHW9); experiment: Aldh1a3 enzyme inhibition assay (resorufin fluorescence), mouse enzyme; settings: recombinant enzyme, 20° C., activity level classes
Sequence (Q9JHW9 whole entry): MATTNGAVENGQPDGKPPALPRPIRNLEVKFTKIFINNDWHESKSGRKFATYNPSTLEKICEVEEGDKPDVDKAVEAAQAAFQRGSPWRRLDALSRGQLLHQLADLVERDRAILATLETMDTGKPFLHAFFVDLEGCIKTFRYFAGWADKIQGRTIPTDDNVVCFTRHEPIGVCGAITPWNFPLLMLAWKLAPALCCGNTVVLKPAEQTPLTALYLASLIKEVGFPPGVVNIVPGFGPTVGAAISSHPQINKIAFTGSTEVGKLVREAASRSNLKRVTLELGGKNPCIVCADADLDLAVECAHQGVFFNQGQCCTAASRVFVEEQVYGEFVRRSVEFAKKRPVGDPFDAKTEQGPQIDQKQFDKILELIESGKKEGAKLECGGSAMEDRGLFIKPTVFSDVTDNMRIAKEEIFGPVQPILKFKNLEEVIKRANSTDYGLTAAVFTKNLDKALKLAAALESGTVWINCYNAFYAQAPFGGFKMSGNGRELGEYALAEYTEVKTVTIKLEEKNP
readoutKind: IC50

molecule: CCc1ncsc1C(=O)Nc1cc(C)c2c(c1)CCC(=O)N2
readoutKind: IC50
observed: < 100 nM
--
molecule: Cc1cc(NC(=O)c2ncsc2CC(F)(F)F)cc2c1NC(=O)C1CC21 (centres unmarked)
readoutKind: IC50
observed: < 100 nM
--
molecule: Cc1cc(OCCN(C)C(=O)c2cccc(F)c2)cc2c1NC(=O)CC2
readoutKind: IC50
observed: > 5000 nM
--
molecule: Cc1cc(OCCN(C)Cc2cccc(F)c2)cc2c1NC(=O)CC2
readoutKind: IC50
observed: 1000 to 5000 nM
--
molecule: Cc1cc(NC(=O)c2ccncc2CC(F)(F)F)cc2c1NC(=O)CS2
readoutKind: IC50
observed: 100 to 250 nM
--
molecule: O=C(Nc1cc(Cl)c2c(c1)C1CC1C(=O)N2)c1scnc1CC(F)(F)F (centres unmarked) [Compound 37]
readoutKind: IC50
observed: < 100 nM
--
molecule: Cc1cc(NC(=O)c2scnc2CC(C)(C)C)cc2c1NC(=O)CC2
readoutKind: IC50
observed: 1000 to 5000 nM
--
molecule: O=C1CCc2cc(NC(=O)c3scnc3-c3cccc(F)c3)c(F)cc2N1
readoutKind: IC50
observed: 100 to 250 nM
--
molecule: O=C1CCc2cc(NC(=O)c3ccccc3-c3cccc(F)c3)cc(Cl)c2N1
readoutKind: IC50
observed: > 5000 nM
--
molecule: Cc1cc(NC(=O)c2scnc2CC2CC2)cc2c1NC(=O)CC2
readoutKind: IC50
observed: < 100 nM
--
molecule: CCc1cnsc1C(=O)Nc1cc(C)c2c(c1)C1CC1C(=O)N2 (centres unmarked)
readoutKind: IC50
observed: < 100 nM

====

Reported IC50 by item:
Molecular target: hALDH1a3 (Homo sapiens, UniProt P47895)
Sequence (P47895 1-512): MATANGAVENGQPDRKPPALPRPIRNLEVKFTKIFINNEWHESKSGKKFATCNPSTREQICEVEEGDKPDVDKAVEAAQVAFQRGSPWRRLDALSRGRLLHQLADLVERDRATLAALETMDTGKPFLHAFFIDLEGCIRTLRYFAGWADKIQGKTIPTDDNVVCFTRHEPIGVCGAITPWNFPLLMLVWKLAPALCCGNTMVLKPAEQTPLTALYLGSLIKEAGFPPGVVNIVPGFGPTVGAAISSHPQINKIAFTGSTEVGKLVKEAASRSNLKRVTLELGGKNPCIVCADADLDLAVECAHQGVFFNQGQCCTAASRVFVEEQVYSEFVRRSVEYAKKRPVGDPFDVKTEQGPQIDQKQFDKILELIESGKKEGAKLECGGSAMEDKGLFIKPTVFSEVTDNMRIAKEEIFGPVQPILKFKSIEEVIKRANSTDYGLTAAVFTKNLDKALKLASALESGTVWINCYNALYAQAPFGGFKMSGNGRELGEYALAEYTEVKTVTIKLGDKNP
Assay: Aldh1a3 enzyme inhibition assay (resorufin fluorescence), human enzyme
Details: recombinant enzyme, 20° C., activity level classes
readoutKind: IC50

molecule: CCc1nc[nH]c1C(=O)Nc1cc(C)c2c(c1)CCC(=O)N2
readoutKind: IC50
observed: 1 to 5 µM

molecule: Cc1cc(NC(=O)c2ocnc2CC(F)(F)F)cc2c1NC(=O)CC2
readoutKind: IC50
observed: 0.25 to 1 µM

molecule: Cc1cc(NC(=O)c2scnc2CC(C)(C)C)cc2c1NC(=O)CC2
readoutKind: IC50
observed: 0.25 to 1 µM

molecule: Cc1cc(NC(=O)c2ccccc2-c2cccc(F)c2)cc2c1NC(=O)CC2
readoutKind: IC50
observed: > 5 µM

molecule: Cc1cc(NC(=O)c2ccncc2CC(F)(F)F)cc2c1NC(=O)CS2
readoutKind: IC50
observed: 0.1 to 0.25 µM

molecule: Cc1cc(OCCN(C)C(=O)c2cccc(F)c2)cc2c1NC(=O)CC2
readoutKind: IC50
observed: > 5 µM

molecule: CCc1ncsc1C(=O)Nc1cc(Cl)c2c(c1)C1CC1C(=O)N2 (stereo not shown) [Compound 43]
readoutKind: IC50
observed: 0.1 to 0.25 µM

molecule: Cc1cc(NC(=O)c2ccncc2-c2ccccc2)cc2c1NC(=O)CC2
readoutKind: IC50
observed: 1 to 5 µM

molecule: Cc1cc(NC(=O)c2scnc2CC2CC2)cc2c1NC(=O)CC2
readoutKind: IC50
observed: < 0.1 µM

molecule: Cc1cc(NC(=O)c2scnc2C2CC2)cc2c1NC(=O)CC2
readoutKind: IC50
observed: 0.25 to 1 µM
